Assay: Compound cytotoxicity, XTT-based colorimetric assay
Format: cell-based
Details: human; uninfected MT2 cells, day 4, XTT; read-out: CC50
valueType: CC50 at 4 days

Some compounds with known CC50 at 4 days results, for comparison:
compound	CC50 at 4 days
COCCCn1nc(NS(C)(=O)=O)c2c(Cl)ccc(-n3c([C@H](Cc4cc(F)cc(F)c4)NC(=O)Cn4nc(C(F)F)c5c4C[C@@H]4C[C@H]54)nc4nc(C5CCC(F)(F)CC5)cc(C)c4c3=O)c21 (atropisomer, axis not shown; (P)) [Example 86]	> 50 nM
COCCCn1nc(NS(C)(=O)=O)c2c(Cl)ccc(-n3c([C@H](Cc4cc(F)cc(F)c4)NC(=O)Cn4nc(C(F)F)c5c4C(F)(F)[C@@H]4C[C@H]54)nc4nc(C5CCC(F)(F)CC5)cc(NCCC5CCCCO5)c4c3=O)c21 (stereo partly shown) [Example 563]	> 20 nM
COCCCn1nc(NS(C)(=O)=O)c2c(Cl)ccc(-n3c([C@H](Cc4cc(F)cc(F)c4)NC(=O)Cn4nc(C(F)F)c5c4C(F)(F)[C@@H]4C[C@H]54)nc4nc(C5CCC(F)(F)CC5)cc(NC[C@@H]5CCCOC5)c4c3=O)c21 (atropisomer, axis not shown; (P)) [Example 428]	> 20 nM

Next up:
// CC50 at 4 days value for COCCCn1nc(NS(C)(=O)=O)c2c(Cl)ccc(-n3c([C@H](Cc4cc(F)cc(F)c4)NC(=O)Cn4nc(C(F)F)c5c4C(F)(F)[C@@H]4C[C@H]54)nc4nc(C5CCC(F)(F)CC5)cc(CN5CC(C(F)(F)F)C5)c4c3=O)c21 (atropisomer, axis not shown; (P)) [Example 605] : > 20 nM

----------
For each entry below, report its CC50 at 4 days value.
Assay: Compound cytotoxicity, XTT-based colorimetric assay
Format: cell-based
Settings: human; uninfected MT2 cells, day 4, XTT; read-out: CC50

compound	CC50 at 4 days
COCCN(CCOC)C(=O)Cn1nc(NS(C)(=O)=O)c2c(Cl)ccc(-n3c([C@H](Cc4cc(F)cc(F)c4)NC(=O)Cn4nc(C5CC5)c5c4C[C@@H]4C[C@H]54)nc4nc(C5CCC(F)(F)CC5)cc(C)c4c3=O)c21 (atropisomer, axis not shown; (P)) [Example 387]	> 20 nM
CS(=O)(=O)Nc1nn(CCN2CC(F)(F)C2)c2c(-n3c([C@H](Cc4cc(F)cc(F)c4)NC(=O)Cn4nc(C(F)F)c5c4C(F)(F)[C@@H]4C[C@H]54)nc4nc(C5CCC(F)(F)CC5)ccc4c3=O)ccc(Cl)c12 (atropisomer, axis not shown; (P)) [Example 48]	> 50 nM
CS(=O)(=O)Nc1nn(CCN2C[C@H](F)C[C@H](F)C2)c2c(-n3c([C@H](Cc4cc(F)cc(F)c4)NC(=O)Cn4nc(C(F)F)c5c4C(F)(F)[C@@H]4C[C@H]54)nc4nc(C5CCC(F)(F)CC5)cc(NCCN5CCOCC5)c4c3=O)ccc(Cl)c12 (atropisomer, axis not shown; (P)) [Example 491]	> 20 nM

Here is the next item to consider.
Notebook: Cc1cc(C2CCC(F)(F)CC2)nc2nc([C@H](Cc3cc(F)cc(F)c3)NC(=O)Cn3nc(C4CC4)c4c3C[C@@H]3C[C@H]43)n(-c3ccc(Cl)c4c(NS(C)(=O)=O)nn(CCN5CCCC5)c34)c(=O)c12 (atropisomer, axis not shown; (P)) [Example 273] , CC50 at 4 days read as > 50 nM

----------
Assay: Compound cytotoxicity, XTT-based colorimetric assay
Assay type: cell-based
Conditions: human; uninfected MT2 cells, day 4, XTT; read-out: CC50
valueType: CC50 at 4 days

# count of solved cases: 3
molecule	reported
Cc1cc(C2(F)CCC(F)(F)CC2)nc2nc([C@H](Cc3cc(F)cc(F)c3)NC(=O)Cn3nc(C4CC4)c4c3C[C@@H]3C[C@H]43)n(-c3ccc(Cl)c4c(NS(C)(=O)=O)nn(CCN5C[C@@H](C)OC(C)(C)C5)c34)c(=O)c12 (atropisomer, axis not shown; (P)) [Example 584]	> 0.02 µM
CC1(C)CN(CCn2nc(NS(C)(=O)=O)c3c(Cl)ccc(-n4c([C@H](Cc5cc(F)cc(F)c5)NC(=O)Cn5nc(C6CC6)c6c5C[C@@H]5C[C@H]65)nc5nc(C6CCC(F)(F)CC6)cc(C(F)F)c5c4=O)c32)CC(C)(C)O1 (atropisomer, axis not shown; (P)) [Example 421]	> 0.02 µM
Cc1cc(C2CCC(F)(F)CC2)nc2nc([C@H](Cc3cc(F)cc(F)c3)NC(=O)Cn3nc(C4CC4)c4c3C[C@@H]3C[C@H]43)n(-c3ccc(Cl)c4c(NS(C)(=O)=O)nn(CCN5CCCC(F)(F)C5)c34)c(=O)c12 (atropisomer, axis not shown; (P)) [Example 2]	> 0.05 µM

Report CC50 at 4 days for each item below.
1. COCCCn1nc(NS(C)(=O)=O)c2c(Cl)ccc(-n3c([C@H](Cc4cc(F)cc(F)c4)NC(=O)Cn4nc(C(F)F)c5c4C(F)(F)[C@@H]4C[C@H]54)nc4nc(C5CCC(F)(F)CC5)cc(NCCN5CCN(C)CC5)c4c3=O)c21 (atropisomer, axis not shown; (P)) [Example 535]
2. CS(=O)(=O)Nc1nn(CCN2CC[C@@H](F)C2)c2c(-n3c([C@H](Cc4cc(F)cc(F)c4)NC(=O)Cn4nc(C(F)F)c5c4C(F)(F)[C@@H]4C[C@H]54)nc4nc(C5CCC(F)(F)CC5)ccc4c3=O)ccc(Cl)c12 (atropisomer, axis not shown; (P)) [Example 208]

["> 0.02 µM", "> 0.05 µM"]

----------
Assay: Compound cytotoxicity, XTT-based colorimetric assay
Type: cell-based
Settings: human; uninfected MT2 cells, day 4, XTT; read-out: CC50
valueType: CC50 at 4 days

Can you give me CC50 at 4 days for all of these, one by one?
1. Cc1cc(C2(F)CCC(F)(F)CC2)nc2nc([C@H](Cc3cc(F)cc(F)c3)NC(=O)Cn3nc(C(F)F)c4c3C(F)(F)[C@@H]3C[C@H]43)n(-c3ccc(Cl)c4c(NS(C)(=O)=O)nn(CCN5C[C@H]6CC[C@@H](C5)O6)c34)c(=O)c12 (atropisomer, axis not shown; (P))
2. COCc1cc(C2CCC(F)(F)CC2)nc2nc([C@H](Cc3cc(F)cc(F)c3)NC(=O)Cn3nc(C(F)F)c4c3C(F)(F)[C@@H]3C[C@H]43)n(-c3ccc(Cl)c4c(NS(C)(=O)=O)nn(CCN5CCC(F)(F)CC5)c34)c(=O)c12 (atropisomer, axis not shown; (P))
3. COCCNc1cc(C2CCC(F)(F)CC2)nc2nc([C@H](Cc3cc(F)cc(F)c3)NC(=O)Cn3nc(C(F)F)c4c3C(F)(F)[C@@H]3C[C@H]43)n(-c3ccc(Cl)c4c(NS(C)(=O)=O)nn(CCN5C[C@H](F)C[C@H](F)C5)c34)c(=O)c12 (atropisomer, axis not shown; (P))
4. CS(=O)(=O)Nc1nn(CCN2CCOC(C(F)F)C2)c2c(-n3c([C@H](Cc4cc(F)cc(F)c4)NC(=O)Cn4nc(C(F)F)c5c4C(F)(F)[C@@H]4C[C@H]54)nc4nc(C5CCC(F)(F)CC5)ccc4c3=O)ccc(Cl)c12 (stereo partly shown)

["> 20 nM", "> 20 nM", "> 20 nM", "> 50 nM"]

----------
Test: Compound cytotoxicity, XTT-based colorimetric assay
Assay type: cell-based
Details: human; uninfected MT2 cells, day 4, XTT; read-out: CC50
Consider the following compounds; for each one, report its CC50 at 4 days.

compound	CC50 at 4 days
CS(=O)(=O)Nc1nn(CCN2CCC(F)(F)C2)c2c(-n3c([C@H](Cc4cc(F)cc(F)c4)NC(=O)Cn4nc(C(F)F)c5c4C(F)(F)[C@@H]4C[C@H]54)nc4nc(C5CCC(F)(F)CC5)ccc4c3=O)ccc(Cl)c12 (atropisomer, axis not shown; (P))	> 50 nM

List CC50 at 4 days for every entry below, keeping the order given.
1. COCCCn1nc(NS(C)(=O)=O)c2c(Cl)ccc(-n3c([C@H](Cc4cc(F)cc(F)c4)NC(=O)Cn4nc(C(F)F)c5c4C(F)(F)[C@@H]4C[C@H]54)nc4nc(C5CCC(F)(F)CC5)cc(NCCN5CCCC5)c4c3=O)c21 (atropisomer, axis not shown; (P))
2. Cc1cc(C2CCC(F)(F)CC2)nc2nc([C@H](Cc3cc(F)cc(F)c3)NC(=O)Cn3nc(C(F)F)c4c3C(F)(F)[C@@H]3C[C@H]43)n(-c3ccc(Cl)c4c(NS(C)(=O)=O)nn(CCN5CCOC(C)(C)C5)c34)c(=O)c12 (atropisomer, axis not shown; (P))
3. COC[C@H]1CN(CCn2nc(NS(C)(=O)=O)c3c(Cl)ccc(-n4c([C@H](Cc5cc(F)cc(F)c5)NC(=O)Cn5nc(C(F)F)c6c5C(F)(F)[C@@H]5C[C@H]65)nc5nc(C6CCC(F)(F)CC6)ccc5c4=O)c32)CCO1 (atropisomer, axis not shown; (P))

> 20 nM
> 20 nM
> 50 nM
